tgt: T1, Bicoid DBD-GST (Bcd) (UniProt P09081 83-170)
T1 sequence: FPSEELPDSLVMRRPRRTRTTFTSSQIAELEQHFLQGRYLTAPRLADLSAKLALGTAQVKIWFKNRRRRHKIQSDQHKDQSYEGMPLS
experimental_protocol: competitive fluorescence anisotropy (HiP-FA); mean of replicates 19.276, 18.3665; HiP-FA: 33 mM phosphate pH 7.0, 90 mM NaCl, 0.01% Tween 20, 0.1 mM DTT, 0.5% agarose; conventional titration and EMSA: 20 mM Tris-acetate pH 7.0, 50 nM (sic) NaCl, 0.01% Tween-20, 0.1 mM DTT
experimental_context: protein: recombinant; tags: N-terminal GST; blunt, G:G mismatch at position 6
measured_endpoint: Kd
Give me the value, and tack the unit on after it.

INPUT: Can you share its Kd? I mean this binder: Bcd competitor 20 (T7G) (dsDNA) DNA 1: TCGACGGTAAGCCCTA DNA 2: TAGGGCTTACGGTCGA
OUTPUT: 0.0188 µM

Source listed as paper PMC5913336.
